Data origin, for the record: ChEMBL document CHEMBL1201862

test system: U-251; assay: NCI tumour cell line growth inhibition, 48 h
Calls of active or inactive are those of the source. No stated cut-off is given here; in the data, active = GI50 up to about 1.1 µM and inactive = higher.
Assign a class; possible classes are TRUE (active), FALSE (inactive)

Here are 6 molecules together with their reported answers.
* N=C(N)SCCc1cn2ccccc2n1 | FALSE
* NCCNCCNCc1c2ccccc2c(CNCCNCCN)c2ccccc12 | FALSE
* Cc1cc(C)nc(NS(=O)(=O)c2ccc(NC(=O)c3cccc4c(Nc5ccc(S(=O)(=O)Nc6nc(C)cc(C)n6)cc5)c5ccccc5nc34)cc2)n1 | FALSE
* COC(=O)C(CCSC)NC(=O)CNC(=O)CSc1nnc(COc2ccc(Cl)cc2)n1-c1ccccc1 (configuration not stated) | FALSE
* Nc1c(Cl)ncnc1NCCCNc1ncnc(Cl)c1N | FALSE
* O=C(/C=C\c1ccc(/C=C/C(=O)Nc2cccc(C3=NCCCN3)c2)cc1)Nc1cccc(C2=NCCCN2)c1 | FALSE

Then there is this molecule:
Challenge: Tell me the recorded outcome of this test for COc1ccc2nc(-c3ccc(O)cc3)cc(O)c2c1 .
Response given: TRUE
